// provenance: patent US10875856B2

- System: H827 cells
- Assay method text: cell proliferation with erlotinib, H827
- Type: cell-based
- Particulars: H827, single agent; read-out: IC50 of cell proliferation

[
  {
    "Smiles entry": "C#Cc1cccc(Nc2ncnc3cc(OCCOC)c(OCCOC)cc23)c1",
    "Unit name": "µM",
    "IC50": 6.9
  }
]

----------
- System: H827 cells
- Assay method text: cell proliferation with erlotinib, H827
- Assay type: cell-based
- Particulars: H827, combined with 750 nM compound (A); read-out: IC50 of erlotinib in combinatorial treatment

[
  {
    "Smiles entry": "C#Cc1cccc(Nc2ncnc3cc(OCCOC)c(OCCOC)cc23)c1",
    "Unit name": "nM",
    "IC50": 30
  }
]
